- experimental.protocol: chemical genetic growth profiling, strain panel (AID 1159580);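 also: tested at 20 µM; growth read once vehicle control cultures reached saturation at 30 °C; 1 = growth at the plate median or of vehicle wells; lower values mean less growth of the strain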
- condition.label: S. cerevisiae deletion strains, growth OD, locus YLR058C, strain SHM2, hits give low values
About 2,000 (36%) of roughly 5,500 compounds were called active. Another 18% or so got no clear call; they are omitted. Some of the results follow.
In this section we review reported normalized growth values for a set of compounds.
Reply with just the number.

compound	normalized growth
CCCCCCCCC(=O)NCc1ccc(O)c(OC)c1	0.984
CCC1(O)CC(OC2CC(N(C)C)C(OC3CC(O)C(OC4CCC(=O)C(C)O4)C(C)O3)C(C)O2)c2c(cc3c(c2O)C(=O)c2c(O)cccc2C3=O)C1C(=O)OC (stereo unspecified)	1

input: Could you share which normalized growth value was measured for CC[C@@H](C(=O)C(C)[C@@H](O)[C@H](C)CCc1ccc(C)c(O)c1C(=O)O)C1OC(CC)(C2CC[C@](O)(CC)[C@H](C)O2)C[C@@H]1C (stereo partly specified) ?
output: 1.02

input: Could you share which normalized growth value was measured for `CC[C@H]1OC(=O)[C@H](C)[C@@H](O[C@H]2C[C@@](C)(OC)[C@@H](O)[C@H](C)O2)[C@H](C)[C@@H](O[C@@H]2O[C@H](C)C[C@H](N(C)C)[C@H]2O)[C@](C)(OC)C[C@@H](C)C(=O)[C@H](C)[C@@H](O)[C@]1(C)O` ?
output: 0.987

input: Could you share which normalized growth value was measured for COc1ccc(OC)c(C(O)CNC(=O)CN)c1 (stereo unspecified) ?
output: 0.976

input: Could you share which normalized growth value was measured for `Clc1ccc(C(c2ccc(Cl)cc2)C(Cl)(Cl)Cl)cc1` ?
output: 1.02

input: Could you share which normalized growth value was measured for `COc1ccc(CN(CCN(C)C)c2ccccn2)cc1` ?
output: 0.997

input: Could you share which normalized growth value was measured for COc1ccc(C(CN(C)C)C2(O)CCCCC2)cc1 (stereo unspecified) ?
output: 1.01

input: Could you share which normalized growth value was measured for `O=C(O)/C=C/c1ccc(O)c(O)c1` ?
output: 1.01

input: Could you share which normalized growth value was measured for `Cc1ccc(S(=O)(=O)NC(=O)NN2CCCCCC2)cc1` ?
output: 0.992

input: Could you share which normalized growth value was measured for COC(=O)C[C@H]1C2(C)CC34OC5(C)O[C@@]6([C@H](OC(C)=O)C(OC(C)=O)[C@]7(C)C(/C(=C(/O)C(C)C)C(=O)O[C@H]7c7ccoc7)[C@@]6(O5)[C@H](OC(C)=O)[C@@]3(O)C2OC(=O)C(C)C)[C@]14C (stereo partly specified) ?
output: 0.987

input: Could you share which normalized growth value was measured for `CN(C)CCN(Cc1ccccc1)c1ccccn1` ?
output: 0.999

input: Could you share which normalized growth value was measured for `COc1ccc(C(c2ccc(OC)cc2)C(Cl)(Cl)Cl)cc1` ?
output: 0.994

input: Could you share which normalized growth value was measured for `Cc1ncc(CNC(=O)N(CCCl)N=O)c(N)n1` ?
output: 1.02

input: Could you share which normalized growth value was measured for CCC(C)C(=O)O[C@@H]1C[C@@]2(C)[C@H](c3ccoc3)OC(=O)CC23OC2(C)OC34[C@H](OC(=O)C(C)C)[C@@]3(O)[C@@H](OC(=O)C5(C)OC5C)[C@@]5(C)C[C@]3(O)[C@@](C)([C@H]5CC(=O)OC)C14O2 (stereo partly specified) ?
output: 1.01
